Values were extracted from patent US20120316105A1.

Assay: Cytotoxicity assay (LDH release), hRPTEC
Type: cell-based, human
Details: human
Bridge positions count the residues as written; N and C are the ends. Square brackets hold non-standard residues; d marks the D form. Peptide text beside a SMILES is read from it. * marks the point of attachment. X33 = N#Cc1ccc(-c2cc(C(=O)*)ccc2Cl)cc1; X2 = N#Cc1ccc(-c2cc(C(=O)*)ccn2)cc1F; X39 = COc1ccc(C(=O)*)cc1-c1ccccc1; X27 = O=C(c1cncc(-c2ccccc2)c1)*; Dab = NCC[C@H](N)C(=O)O; Dap = NC[C@H](N)C(=O)O
So I've got a bunch of molecules here, and I need their CC50 at 24 h values.
Don't forget the unit after the number, please.

Find the recorded CC50 at 24 h belonging to CC(C)C[C@@H]1NC(=O)[C@@H](Cc2ccccc2)NC(=O)[C@H](CCN)NC(=O)[C@@H](NC(=O)[C@H](CN)NC(=O)[C@@H](NC(=O)[C@H](CCN)NC(=O)c2ccnc(-c3ccc(C#N)c(F)c3)c2)[C@@H](C)O)CCNC(=O)[C@H]([C@@H](C)O)NC(=O)[C@H](CCN)NC(=O)[C@H](CCN)NC1=O [Example 31] (X2-[Dab]T[Dap][Dab][Dab][dF]L[Dab][Dab]T; lactam 4-C) and report it.
55 µM

Find the recorded CC50 at 24 h belonging to CC(C)C[C@@H]1NC(=O)[C@@H](Cc2ccccc2)NC(=O)[C@H](CCN)NC(=O)[C@@H](NC(=O)[C@H](CN)NC(=O)[C@@H](NC(=O)[C@H](CCN)NC(=O)c2cncc(-c3ccccc3)c2)[C@@H](C)O)CCNC(=O)[C@H]([C@@H](C)O)NC(=O)[C@H](CCN)NC(=O)[C@H](CCN)NC1=O [Example 30] (X27-[Dab]T[Dap][Dab][Dab][dF]L[Dab][Dab]T; lactam 4-C) and report it.
56 µM

Find the recorded CC50 at 24 h belonging to CC(C)C[C@@H]1NC(=O)[C@@H](Cc2ccccc2)NC(=O)[C@H](CCN)NC(=O)[C@@H](NC(=O)[C@H](CN)NC(=O)[C@@H](NC(=O)[C@H](CCN)NC(=O)c2ccc(Cl)c(-c3ccc(C#N)cc3)c2)[C@@H](C)O)CCNC(=O)[C@H]([C@@H](C)O)NC(=O)[C@H](CCN)NC(=O)[C@H](CCN)NC1=O [Example 39] (X33-[Dab]T[Dap][Dab][Dab][dF]L[Dab][Dab]T; lactam 4-C) and report it.
20 µM

Find the recorded CC50 at 24 h belonging to COc1ccc(C(=O)N[C@@H](CCN)C(=O)N[C@H](C(=O)N[C@@H](CN)C(=O)N[C@H]2CCNC(=O)[C@H]([C@@H](C)O)NC(=O)[C@H](CCN)NC(=O)[C@H](CCN)NC(=O)[C@H](CC(C)C)NC(=O)[C@@H](Cc3ccccc3)NC(=O)[C@H](CCN)NC2=O)[C@@H](C)O)cc1-c1ccccc1 [Example 16] (X39-[Dab]T[Dap][Dab][Dab][dF]L[Dab][Dab]T; lactam 4-C) and report it.
27 µM

---

Test: Cytotoxicity assay (LDH release), hRPTEC
Format: cell-based, human
Settings: human
Numbered stars: 1 amine (or outer) side, 2 acyl side, 3 side chain; on linkers, the order of the positions; unused ones are H or OH. Bridge positions count the residues as written; N and C are the ends. Square brackets hold non-standard residues; d marks the D form. Peptide text beside a SMILES is read from it. * marks the point of attachment. X18 = N#Cc1ccc(-c2cc(C(=O)*)ccc2C#N)cc1; X21 = N#Cc1cccc(-c2cc(C(=O)*)ccn2)c1; X38 = O=S(=O)(c1cccc(-c2ccccc2)c1)*; X20 = Cc1ccc(-c2cccc(C(=O)*)c2)cc1; X3 = O=C(c1ccnc(-c2cccc(Cl)c2)c1)*; X5 = O=C(c1ccnc(-c2cccc(F)c2)c1)*; X6 = O=C(c1cccc(-c2ccc(F)cc2)c1)*; X8 = O=C(c1cc(-c2ccccc2)ccc1F)*; X36 = c1ccc(-c2cccc(N*)c2)cc1; Dab = NCC[C@H](N)C(=O)O; Dap = NC[C@H](N)C(=O)O; CO = O=C([*:1])[*:2]
So I've got a bunch of compounds here, and I need their CC50 at 24 h values.
Kindly answer with a numeric value in µM, unit omitted.

Find the recorded CC50 at 24 h belonging to CC(C)C[C@@H]1NC(=O)[C@@H](Cc2ccccc2)NC(=O)[C@H](CCN)NC(=O)[C@@H](NC(=O)[C@H](CN)NC(=O)[C@@H](NC(=O)[C@H](CCN)NC(=O)c2ccc(C#N)c(-c3ccc(C#N)cc3)c2)[C@@H](C)O)CCNC(=O)[C@H]([C@@H](C)O)NC(=O)[C@H](CCN)NC(=O)[C@H](CCN)NC1=O [Example 13] (X18-[Dab]T[Dap][Dab][Dab][dF]L[Dab][Dab]T; lactam 4-C) and report it.
58

Find the recorded CC50 at 24 h belonging to CC(C)C[C@@H]1NC(=O)[C@@H](Cc2ccccc2)NC(=O)[C@H](CCN)NC(=O)[C@@H](NC(=O)[C@H](CN)NC(=O)[C@@H](NC(=O)[C@H](CCN)NS(=O)(=O)c2cccc(-c3ccccc3)c2)[C@@H](C)O)CCNC(=O)[C@H]([C@@H](C)O)NC(=O)[C@H](CCN)NC(=O)[C@H](CCN)NC1=O [Example 41] (X38-[Dab]T[Dap][Dab][Dab][dF]L[Dab][Dab]T; lactam 4-C) and report it.
42

Find the recorded CC50 at 24 h belonging to CC(C)C[C@@H]1NC(=O)[C@@H](Cc2ccccc2)NC(=O)[C@H](CCN)NC(=O)[C@@H](NC(=O)[C@H](CN)NC(=O)[C@@H](NC(=O)[C@H](CCN)NC(=O)c2cccc(-c3ccc(F)cc3)c2)[C@@H](C)O)CCNC(=O)[C@H]([C@@H](C)O)NC(=O)[C@H](CCN)NC(=O)[C@H](CCN)NC1=O [Example 20] (X6-[Dab]T[Dap][Dab][Dab][dF]L[Dab][Dab]T; lactam 4-C) and report it.
18

Find the recorded CC50 at 24 h belonging to CC(C)C[C@@H]1NC(=O)[C@@H](Cc2ccccc2)NC(=O)[C@H](CCN)NC(=O)[C@@H](NC(=O)[C@H](CN)NC(=O)[C@@H](NC(=O)[C@H](CCN)NC(=O)c2cc(-c3ccccc3)ccc2F)[C@@H](C)O)CCNC(=O)[C@H]([C@@H](C)O)NC(=O)[C@H](CCN)NC(=O)[C@H](CCN)NC1=O [Example 34] (X8-[Dab]T[Dap][Dab][Dab][dF]L[Dab][Dab]T; lactam 4-C) and report it.
28

Find the recorded CC50 at 24 h belonging to Cc1ccc(-c2cccc(C(=O)N[C@@H](CCN)C(=O)N[C@H](C(=O)N[C@@H](CN)C(=O)N[C@H]3CCNC(=O)[C@H]([C@@H](C)O)NC(=O)[C@H](CCN)NC(=O)[C@H](CCN)NC(=O)[C@H](CC(C)C)NC(=O)[C@@H](Cc4ccccc4)NC(=O)[C@H](CCN)NC3=O)[C@@H](C)O)c2)cc1 [Example 37] (X20-[Dab]T[Dap][Dab][Dab][dF]L[Dab][Dab]T; lactam 4-C) and report it.
18

Find the recorded CC50 at 24 h belonging to CC(C)C[C@@H]1NC(=O)[C@@H](Cc2ccccc2)NC(=O)[C@H](CCN)NC(=O)[C@@H](NC(=O)[C@H](CN)NC(=O)[C@@H](NC(=O)[C@H](CCN)NC(=O)c2ccnc(-c3cccc(F)c3)c2)[C@@H](C)O)CCNC(=O)[C@H]([C@@H](C)O)NC(=O)[C@H](CCN)NC(=O)[C@H](CCN)NC1=O [Example 7] (X5-[Dab]T[Dap][Dab][Dab][dF]L[Dab][Dab]T; lactam 4-C) and report it.
41

Find the recorded CC50 at 24 h belonging to CC(C)C[C@@H]1NC(=O)[C@@H](Cc2ccccc2)NC(=O)[C@H](CCN)NC(=O)[C@@H](NC(=O)[C@H](CN)NC(=O)[C@@H](NC(=O)[C@H](CCN)NC(=O)c2ccnc(-c3cccc(Cl)c3)c2)[C@@H](C)O)CCNC(=O)[C@H]([C@@H](C)O)NC(=O)[C@H](CCN)NC(=O)[C@H](CCN)NC1=O [Example 3] (X3-[Dab]T[Dap][Dab][Dab][dF]L[Dab][Dab]T; lactam 4-C) and report it.
34

Find the recorded CC50 at 24 h belonging to CC(C)C[C@@H]1NC(=O)[C@@H](Cc2ccccc2)NC(=O)[C@H](CCN)NC(=O)[C@@H](NC(=O)[C@H](CN)NC(=O)[C@@H](NC(=O)[C@H](CCN)NC(=O)c2ccnc(-c3cccc(C#N)c3)c2)[C@@H](C)O)CCNC(=O)[C@H]([C@@H](C)O)NC(=O)[C@H](CCN)NC(=O)[C@H](CCN)NC1=O [Example 15] (X21-[Dab]T[Dap][Dab][Dab][dF]L[Dab][Dab]T; lactam 4-C) and report it.
43

Find the recorded CC50 at 24 h belonging to CC[C@H](C)[C@@H]1NC(=O)[C@@H](Cc2ccccc2)NC(=O)[C@H](CCN)NC(=O)[C@@H](NC(=O)[C@H](CN)NC(=O)[C@@H](NC(=O)[C@H](CCN)NC(=O)c2ccnc(-c3cccc(Cl)c3)c2)[C@@H](C)O)CCNC(=O)[C@H]([C@@H](C)O)NC(=O)[C@H](CCN)NC(=O)[C@H](CCN)NC1=O [Example 48] (X3-[Dab]T[Dap][Dab][Dab][dF]I[Dab][Dab]T; lactam 4-C) and report it.
33

Find the recorded CC50 at 24 h belonging to CC(C)C[C@@H]1NC(=O)[C@@H](Cc2ccccc2)NC(=O)[C@H](CCN)NC(=O)[C@@H](NC(=O)[C@H](CN)NC(=O)[C@@H](NC(=O)[C@H](CCN)NC(=O)Nc2cccc(-c3ccccc3)c2)[C@@H](C)O)CCNC(=O)[C@H]([C@@H](C)O)NC(=O)[C@H](CCN)NC(=O)[C@H](CCN)NC1=O [Example 40] ({X36-CO}-[Dab]T[Dap][Dab][Dab][dF]L[Dab][Dab]T; lactam 4-C) and report it.
15
